The reported numbers originate from patent US20220363763A1.

tested_on: T1, recombinant his-tag human LAG3-ECD protein (human, UniProt P18627 23-450)
T1 construct: extracellular domain; not shown: his tag
T1 sequence (looked up): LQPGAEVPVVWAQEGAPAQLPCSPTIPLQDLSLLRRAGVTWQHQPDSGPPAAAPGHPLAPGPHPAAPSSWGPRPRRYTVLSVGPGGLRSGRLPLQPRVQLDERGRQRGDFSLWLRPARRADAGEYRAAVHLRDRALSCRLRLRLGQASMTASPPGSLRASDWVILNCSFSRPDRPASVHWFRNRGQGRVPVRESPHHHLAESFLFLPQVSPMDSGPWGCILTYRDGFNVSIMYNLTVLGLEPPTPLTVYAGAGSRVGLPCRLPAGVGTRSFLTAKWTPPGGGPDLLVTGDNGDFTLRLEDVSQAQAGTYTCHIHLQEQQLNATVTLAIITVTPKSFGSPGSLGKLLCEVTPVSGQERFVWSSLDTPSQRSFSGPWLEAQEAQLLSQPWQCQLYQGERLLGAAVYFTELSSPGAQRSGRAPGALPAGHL
assay_summary: SPR Biacore T200, antibody captured by anti-human Fc, LAG3-ECD-his injected
experimental_readout: kon (M⁻¹ s⁻¹)
Give bare numbers, in M⁻¹ s⁻¹.

Record kon per entry; entries follow.
1. NLAG3-HDB169-S119 (antibody, human IgG1, V domains shown, Short label tied by its unique suffix) VH: QVQLVQSGAEVKKPGSSVKVSCKASGGTFSSYAISWVRQAPGQGLEWMGGIIPIFGTANYAQKFQGRVTITADESTSTAYMELSSLRSEDTAVYYCAASTLRVPNPPYWGQGTLVTVSS VL: EIVLTQSPGTLSLSPGERATLSCRASQSVSSYLAWYQQKPGQAPRLLIYGISSRATGIPDRFSGSGSGTDFTLTISSLQPEDFATYYCQQANNFPLTFGGGTKLEIKR
2. NLAG3-HDB169-S128 (antibody, human IgG1, V domains shown, Short label tied by its unique suffix) VH: QVQLVQSGAEVKKPGSSVKVSCKASGGTFSSYAISWVRQAPGQGLEWMGGIIPIFGTANYAQKFQGRVTITADESTSTAYMELSSLRSEDTAVYYCARDAGPVGYYGMDVWGQGTMVTVSS VL: AIQMTQSPSSLSASVGDRVTITCRASQGISSWLAWYQQKPGKAPKLLIYAASSLQSGVPSRFSGSGSGTDFTLTISRLQPEDFATYYCQQAKSFPLTFGGGTKVEIKR

Marked response:
1. 2.17e+07
2. 1e+06
